# Tested on: HSkMC
# METHOD_DESCRIPTION: cytotoxicity call (relative viability < 0.9)
# MEASUREMENT_SETUP: 10 µM
Hit rate of the full screen: of about 39,000 compounds, about 1,500 (3.8%) were called active. This excerpt belongs to a sample that is enriched for actives.
QUANTITY_NAME: cytotoxicity call

Solved entries (count: 5):
{"STRUCTURE_SMILES": "C[C@H](CO)N1C[C@H](C)[C@@H](CN(C)C(=O)Nc2ccccc2)Oc2ccc(NC(=O)Nc3ccc(C(F)(F)F)cc3)cc2C1=O", "TARGET_ENTITY": "HSkMC", "cytotoxicity call": "inactive"}
{"STRUCTURE_SMILES": "C[C@H]1CN([C@@H](C)CO)C(=O)c2cc(NC(=O)Nc3ccccc3)ccc2O[C@H]1CN(C)C(=O)Nc1ccc(C(F)(F)F)cc1", "TARGET_ENTITY": "HSkMC", "cytotoxicity call": "inactive"}
{"STRUCTURE_SMILES": "C[C@@H]1CN([C@H](C)CO)C(=O)c2cc(NC(=O)Nc3ccccc3)ccc2O[C@@H]1CN(C)C(=O)Nc1ccc(C(F)(F)F)cc1", "TARGET_ENTITY": "HSkMC", "cytotoxicity call": "inactive"}
{"STRUCTURE_SMILES": "C[C@@H]1CN([C@@H](C)CO)C(=O)c2cc(NC(=O)Nc3ccc(C(F)(F)F)cc3)ccc2O[C@@H]1CN(C)C(=O)Nc1ccccc1", "TARGET_ENTITY": "HSkMC", "cytotoxicity call": "active"}
{"STRUCTURE_SMILES": "C[C@H](CO)N1C[C@H](C)[C@H](CN(C)C(=O)Nc2ccccc2)Oc2ccc(NC(=O)Nc3ccc(C(F)(F)F)cc3)cc2C1=O", "TARGET_ENTITY": "HSkMC (human skeletal muscle cells)", "cytotoxicity call": "active"}

Notebook: `C[C@@H]1CN([C@@H](C)CO)C(=O)c2cc(NC(=O)Nc3ccccc3)ccc2O[C@@H]1CN(C)C(=O)Nc1ccc(C(F)(F)F)cc1` , cytotoxicity call read as inactive

Notebook: `C[C@H]1CN([C@@H](C)CO)C(=O)c2cc(NC(=O)Nc3ccc(C(F)(F)F)cc3)ccc2O[C@@H]1CN(C)C(=O)Nc1ccccc1` , cytotoxicity call read as inactive
